# IC50 values compiled below
- test target: PERK (Homo sapiens (Human))
- assay notes: PERK cellular assay (TR-FRET, HEK293-EGFP-eIF2α cells, tunicamycin-induced ER stress)
- Format: cell-based
- measurement conditions: tunicamycin 2 hours, read-out: Cellular IC50 (μM) (EIF2a)

Reference set, count: 4
INSERT INTO measurements (compound, experimental_result) VALUES
  ('Cc1cc(NC(=O)C(O)c2cc(F)cc(F)c2)ccc1-c1ccc(N)nc1 (stereo not shown) [Example 170]', '2 to 3 µM'),
  ('CC(C)NC(=O)c1cc(-c2ccc(NC(=O)C(O)c3cc(F)cc(F)c3)cc2F)cnc1N (stereo not shown) [Example 32]', '0.051 to 0.1 µM'),
  ('Cc1cc(NC(=O)C(O)c2cc(F)cc(F)c2)ccc1-c1cnc(N)c(C(=O)NC2CC2)n1 (stereo not shown) [Example 138]', '0.026 to 0.05 µM'),
  ('CCc1cc(NC(=O)C(O)c2cc(F)cc(F)c2)ccc1-c1cnc(N)c(C(=O)NC2CC2)n1 (stereo not shown) [Example 157]', '0.101 to 0.25 µM');

Query for PERK (Homo sapiens (Human)): what IC50 does the record show for Cc1cc(NC(=O)Cc2ccc3ccccc3c2)ccc1-c1cnc(N)c(C(=O)NC(C)C)c1 ?
0.101 to 0.25 µM

Query for PERK (Homo sapiens (Human)): what IC50 does the record show for Cc1cccc(C(O)C(=O)Nc2ccc(-c3cnc(N)c(C(=O)NC(C)C)c3)c(C)c2)c1 (stereo not shown) [Example 66] ?
1 to 2 µM

Query for PERK (Homo sapiens (Human)): what IC50 does the record show for CC(C)NC(=O)c1cc(-c2ccc(NC(=O)C(O)c3cc(F)cc(F)c3)cc2Cl)cnc1N (single isomer, unassigned) [Example 35] ?
0.101 to 0.25 µM

====

- test target: PERK (Homo sapiens (Human), UniProt Q9NZJ5)
- Sequence (Q9NZJ5 30-1116): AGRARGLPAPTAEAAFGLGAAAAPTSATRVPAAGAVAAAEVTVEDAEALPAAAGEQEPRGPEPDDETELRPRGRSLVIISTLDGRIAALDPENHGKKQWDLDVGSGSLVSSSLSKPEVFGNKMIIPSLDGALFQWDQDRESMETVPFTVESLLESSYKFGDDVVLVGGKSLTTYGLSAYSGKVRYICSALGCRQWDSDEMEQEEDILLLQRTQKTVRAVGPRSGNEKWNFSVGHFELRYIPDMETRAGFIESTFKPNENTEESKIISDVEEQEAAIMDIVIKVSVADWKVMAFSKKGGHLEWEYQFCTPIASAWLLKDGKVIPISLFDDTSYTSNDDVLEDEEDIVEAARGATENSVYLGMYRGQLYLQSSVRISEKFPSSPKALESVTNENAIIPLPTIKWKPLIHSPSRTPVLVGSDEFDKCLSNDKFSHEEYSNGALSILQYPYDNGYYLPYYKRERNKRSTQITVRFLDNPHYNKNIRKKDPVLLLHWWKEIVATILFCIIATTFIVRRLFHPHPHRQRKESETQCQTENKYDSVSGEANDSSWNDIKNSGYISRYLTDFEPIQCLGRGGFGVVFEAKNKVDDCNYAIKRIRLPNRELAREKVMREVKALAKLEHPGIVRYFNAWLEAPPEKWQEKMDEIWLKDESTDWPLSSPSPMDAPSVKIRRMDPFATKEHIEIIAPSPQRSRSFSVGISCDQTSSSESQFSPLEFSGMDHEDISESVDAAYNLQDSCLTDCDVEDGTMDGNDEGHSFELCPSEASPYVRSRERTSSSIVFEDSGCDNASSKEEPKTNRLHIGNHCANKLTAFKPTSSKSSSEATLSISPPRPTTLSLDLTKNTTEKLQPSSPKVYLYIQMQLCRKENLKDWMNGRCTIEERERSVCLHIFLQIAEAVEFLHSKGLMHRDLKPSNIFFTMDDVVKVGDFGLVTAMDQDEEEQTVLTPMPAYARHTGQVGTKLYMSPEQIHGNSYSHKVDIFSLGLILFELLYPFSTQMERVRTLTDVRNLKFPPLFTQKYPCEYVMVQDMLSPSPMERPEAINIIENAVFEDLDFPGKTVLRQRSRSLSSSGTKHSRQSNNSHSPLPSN
- assay notes: PERK cellular assay (TR-FRET, HEK293-EGFP-eIF2α cells, tunicamycin-induced ER stress)
- Type: cell-based
- measurement conditions: tunicamycin 2 hours, read-out: Cellular IC50 (μM) (EIF2a)
# IC50 values compiled below

Reference set, count: 5
INSERT INTO measurements (molecule, test_target, test_readout, experimental_result) VALUES
  ('CCNC(=O)c1cc(-c2ccc(NC(=O)C(O)c3cc(F)cc(F)c3)cc2Cl)cnc1N (stereo not drawn) [Example 82]', 'PERK (Homo sapiens (Human), UniProt Q9NZJ5)', 'IC50', '0.026 to 0.05 µM'),
  ('Cc1cc(NC(=O)Cc2cccc3cnccc23)ccc1-c1cnc(N)c(C(=O)NC(C)C)c1 [Example 211]', 'PERK (Homo sapiens (Human), UniProt Q9NZJ5)', 'IC50', '2 to 3 µM'),
  ('CCNC(=O)c1cc(-c2ccc(NC(=O)C(O)c3cc(F)cc(F)c3)c(F)c2C)cnc1N (stereo not drawn) [Example 117]', 'PERK (Homo sapiens (Human), UniProt Q9NZJ5)', 'IC50', '0.001 to 0.025 µM'),
  ('Cc1nc(C(O)C(=O)Nc2ccc(-c3cnc(N)c(C(=O)NC(C)C)c3)c(C)c2)cs1 (stereo not drawn) [Example 79]', 'PERK (Homo sapiens (Human), UniProt Q9NZJ5)', 'IC50', '> 5 µM'),
  ('Cc1cc(NC(=O)C(O)c2cc(F)cc(F)c2)ccc1-c1cnc(N)c(C(=O)NC2CNC2)c1 (stereo not drawn) [Example 44]', 'PERK (Homo sapiens (Human), UniProt Q9NZJ5)', 'IC50', '3 to 4 µM');

Query for PERK (Homo sapiens (Human), UniProt Q9NZJ5): what IC50 does the record show for Cc1cc(NC(=O)C(O)c2cc(F)cc(F)c2)ccc1-c1cnc(N)c(C(=O)NC2CNC2)c1 (stereo not drawn) [Example 45] ?
> 5 µM

Query for PERK (Homo sapiens (Human), UniProt Q9NZJ5): what IC50 does the record show for CCNC(=O)c1cc(-c2ccc(NC(=O)C(O)c3cc(F)cc(F)c3)cc2Cl)cnc1N (stereo not drawn) [Example 83] ?
0.251 to 0.5 µM

Query for PERK (Homo sapiens (Human), UniProt Q9NZJ5): what IC50 does the record show for Cc1c(-c2cnc(N)c(C(=O)NC3COC3)c2)ccc(NC(=O)C(O)c2cc(F)cc(F)c2)c1F (stereo not drawn) [Example 121] ?
0.001 to 0.025 µM

Query for PERK (Homo sapiens (Human), UniProt Q9NZJ5): what IC50 does the record show for CCNC(=O)c1cc(-c2ccc(NC(=O)C(O)c3cc(F)cc(F)c3)cc2CC)cnc1N (stereo not drawn) [Example 99] ?
0.101 to 0.25 µM
